Give measured WIZ Amax for each item. Keep answers brief.
Target: WIZ (Homo sapiens, UniProt O95785+Q96SW2)
Construct: expressed in transfected cells
Sequence (O95785 whole entry): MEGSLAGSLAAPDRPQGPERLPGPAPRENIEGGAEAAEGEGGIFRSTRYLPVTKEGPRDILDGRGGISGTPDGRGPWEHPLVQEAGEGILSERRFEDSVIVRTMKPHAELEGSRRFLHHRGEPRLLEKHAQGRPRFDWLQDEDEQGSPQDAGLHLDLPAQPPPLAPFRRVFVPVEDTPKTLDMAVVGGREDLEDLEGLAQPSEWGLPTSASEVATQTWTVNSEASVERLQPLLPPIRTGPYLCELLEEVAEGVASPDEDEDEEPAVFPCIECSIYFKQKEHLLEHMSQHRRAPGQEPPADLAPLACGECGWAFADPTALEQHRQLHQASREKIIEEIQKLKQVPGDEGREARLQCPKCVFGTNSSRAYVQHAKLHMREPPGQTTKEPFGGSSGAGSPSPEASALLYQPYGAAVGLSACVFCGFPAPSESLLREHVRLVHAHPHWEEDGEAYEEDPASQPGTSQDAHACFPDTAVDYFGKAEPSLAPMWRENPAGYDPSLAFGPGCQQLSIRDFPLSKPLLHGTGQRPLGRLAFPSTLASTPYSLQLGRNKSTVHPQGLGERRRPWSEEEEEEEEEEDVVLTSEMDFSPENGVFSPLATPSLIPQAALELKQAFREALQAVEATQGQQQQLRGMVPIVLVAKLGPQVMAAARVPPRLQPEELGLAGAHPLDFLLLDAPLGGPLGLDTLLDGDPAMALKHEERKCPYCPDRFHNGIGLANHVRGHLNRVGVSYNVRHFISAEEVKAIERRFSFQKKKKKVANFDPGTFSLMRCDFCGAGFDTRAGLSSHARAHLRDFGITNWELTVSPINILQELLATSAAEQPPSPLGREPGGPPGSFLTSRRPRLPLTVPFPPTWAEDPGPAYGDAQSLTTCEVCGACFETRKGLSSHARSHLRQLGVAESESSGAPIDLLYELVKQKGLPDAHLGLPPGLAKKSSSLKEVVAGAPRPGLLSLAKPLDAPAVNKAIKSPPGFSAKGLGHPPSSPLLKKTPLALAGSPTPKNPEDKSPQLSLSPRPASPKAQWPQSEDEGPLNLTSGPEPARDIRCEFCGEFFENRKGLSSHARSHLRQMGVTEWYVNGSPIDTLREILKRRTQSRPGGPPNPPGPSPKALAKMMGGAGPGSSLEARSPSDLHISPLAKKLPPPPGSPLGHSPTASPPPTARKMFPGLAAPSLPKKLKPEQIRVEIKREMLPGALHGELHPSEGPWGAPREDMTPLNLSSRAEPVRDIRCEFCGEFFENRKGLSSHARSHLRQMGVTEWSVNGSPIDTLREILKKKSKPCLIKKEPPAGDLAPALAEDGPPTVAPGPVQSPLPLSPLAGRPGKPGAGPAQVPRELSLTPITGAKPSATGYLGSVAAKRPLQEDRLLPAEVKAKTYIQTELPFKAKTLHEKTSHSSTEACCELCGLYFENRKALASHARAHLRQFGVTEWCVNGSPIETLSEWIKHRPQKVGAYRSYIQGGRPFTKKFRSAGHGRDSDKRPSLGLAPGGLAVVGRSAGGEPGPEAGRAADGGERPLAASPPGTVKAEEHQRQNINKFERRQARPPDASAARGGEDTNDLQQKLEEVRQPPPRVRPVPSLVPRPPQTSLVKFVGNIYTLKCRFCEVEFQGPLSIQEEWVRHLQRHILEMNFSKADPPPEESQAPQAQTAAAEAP
Sequence (Q96SW2 whole entry): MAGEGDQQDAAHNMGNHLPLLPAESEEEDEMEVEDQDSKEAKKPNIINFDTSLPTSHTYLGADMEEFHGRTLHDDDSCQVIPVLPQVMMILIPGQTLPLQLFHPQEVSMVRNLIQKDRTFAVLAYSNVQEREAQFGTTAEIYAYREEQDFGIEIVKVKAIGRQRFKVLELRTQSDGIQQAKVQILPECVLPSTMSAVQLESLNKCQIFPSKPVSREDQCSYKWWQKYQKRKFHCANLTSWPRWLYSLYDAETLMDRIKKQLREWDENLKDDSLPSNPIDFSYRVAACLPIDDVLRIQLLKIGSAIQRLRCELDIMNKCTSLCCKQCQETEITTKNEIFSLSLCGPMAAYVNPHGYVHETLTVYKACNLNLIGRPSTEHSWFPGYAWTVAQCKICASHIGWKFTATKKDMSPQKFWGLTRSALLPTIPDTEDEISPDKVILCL
Sequence (Q16531 whole entry partner): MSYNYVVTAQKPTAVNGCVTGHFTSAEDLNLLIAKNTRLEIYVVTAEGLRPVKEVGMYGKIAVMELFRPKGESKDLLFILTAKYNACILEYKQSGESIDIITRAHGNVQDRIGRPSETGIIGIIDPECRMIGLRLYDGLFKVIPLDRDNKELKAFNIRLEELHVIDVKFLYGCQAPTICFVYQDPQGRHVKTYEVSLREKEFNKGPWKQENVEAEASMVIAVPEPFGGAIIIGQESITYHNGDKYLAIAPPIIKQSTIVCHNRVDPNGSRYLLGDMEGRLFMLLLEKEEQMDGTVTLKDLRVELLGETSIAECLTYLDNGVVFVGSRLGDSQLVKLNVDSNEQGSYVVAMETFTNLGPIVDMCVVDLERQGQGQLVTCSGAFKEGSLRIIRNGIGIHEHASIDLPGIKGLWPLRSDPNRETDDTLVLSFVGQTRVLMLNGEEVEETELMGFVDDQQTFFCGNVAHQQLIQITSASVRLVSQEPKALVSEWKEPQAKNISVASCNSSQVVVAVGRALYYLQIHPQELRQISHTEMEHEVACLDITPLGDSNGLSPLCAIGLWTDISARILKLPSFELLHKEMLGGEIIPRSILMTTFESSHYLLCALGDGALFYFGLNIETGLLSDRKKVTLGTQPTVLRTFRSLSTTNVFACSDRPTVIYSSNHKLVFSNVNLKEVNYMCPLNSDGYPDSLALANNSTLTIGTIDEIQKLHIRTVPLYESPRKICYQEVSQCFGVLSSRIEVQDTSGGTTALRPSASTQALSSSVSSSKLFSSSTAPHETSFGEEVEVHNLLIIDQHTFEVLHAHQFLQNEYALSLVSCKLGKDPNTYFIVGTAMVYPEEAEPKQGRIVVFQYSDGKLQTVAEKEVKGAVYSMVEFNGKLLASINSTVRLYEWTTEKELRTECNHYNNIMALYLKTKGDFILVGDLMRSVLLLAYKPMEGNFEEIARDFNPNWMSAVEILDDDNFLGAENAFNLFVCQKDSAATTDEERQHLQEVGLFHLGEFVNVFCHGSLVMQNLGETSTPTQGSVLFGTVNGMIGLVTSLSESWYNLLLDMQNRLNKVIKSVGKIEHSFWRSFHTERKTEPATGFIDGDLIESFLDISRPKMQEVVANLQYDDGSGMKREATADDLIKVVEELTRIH
Assay: Quantification of WIZ protein levels in HiBit tag fusion protein assay (293T cells)
Type: cell-based
Conditions: DMSO-normalized, curve-fitted percentage of WIZ-HiBit remaining at 25 uM
Write down the numeric answer in % and omit the unit.

Qu. Lab note: need WIZ Amax with WIZ (Homo sapiens, UniProt O95785+Q96SW2) for entry CCN1C[C@H](C)C[C@@H](Oc2ccc3c(c2)CN(C2CCC(=O)NC2=O)C3=O)C1 (single isomer, unassigned) [Example 76-2] , please look it up.
Ans. 12.82

Qu. Lab note: need WIZ Amax with WIZ (Homo sapiens, UniProt O95785+Q96SW2) for entry CCN1C[C@H](OC)C[C@@H](Oc2ccc3c(c2)CN(C2CCC(=O)NC2=O)C3=O)C1 (single isomer, unassigned) [Example 65-2] , please look it up.
Ans. 19.67

Qu. Lab note: need WIZ Amax with WIZ (Homo sapiens, UniProt O95785+Q96SW2) for entry CCN1CC(Oc2ccc3c(c2)CN(C2CCC(=O)NC2=O)C3=O)CC2(CC2)C1 (single isomer, unassigned) [Example 19] , please look it up.
Ans. 37.13

Qu. Lab note: need WIZ Amax with WIZ (Homo sapiens, UniProt O95785+Q96SW2) for entry CC[C@H](C)N1CCC(C)(C)C(Oc2ccc3c(c2)CN(C2CCC(=O)NC2=O)C3=O)C1 (single isomer, unassigned) [Example 51] , please look it up.
Ans. 87.19

Qu. Lab note: need WIZ Amax with WIZ (Homo sapiens, UniProt O95785+Q96SW2) for entry CCN1CC(Oc2ccc3c(c2)CN(C2CCC(=O)NC2=O)C3=O)CC2(CC2)C1 (single isomer, unassigned) [Example 18] , please look it up.
Ans. 61.38
